tgt: cJun/TRE DNA (Homo sapiens)
Construct: LC-MS analysis of the cJun bZIP domain; made in house
Sequence (P05412 252-315 limits assumed): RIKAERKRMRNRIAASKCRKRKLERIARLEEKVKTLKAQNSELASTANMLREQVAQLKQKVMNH
experiment: CD cJun/TRE DNA antagonism assay (TRE DNA signal at 281 nm)
Assay type: biochemical
experimental_context: reducing buffer (5 mM TCEP), pH 7.4, 30 min equilibration; triplicate data, Hill fit; error one SD; read-out: cJun-TRE DNA IC50, reduced
assay_readout: pIC50
Schema: pIC50 number; meaning minus log10 of the concentration expressed in molar units.

Data request: # lookup: cJun/TRE DNA (Homo sapiens) pIC50, key = Ac-LEQRAEELARENEELEKEAEELVVEEDVLEEEIEQLEERNYALRKEIEDLQKQLEKL-NH2 [HW1, reference compound]
Data returned: 4.86
